# procedure details: Enzyme kinetics of 4(S)-hydroxyevogliptin glucuronidation in pooled human liver microsomes
# Format: in vitro ADME
# experimental parameters: pH 7.4, Hill equation
assay metric: Km at 20 min (µM)
Form entry: value (µM) — number only.

// query // fetch Km at 20 min given entry CC(C)(C)OC[C@@H]1C(=O)NCCN1C(=O)C[C@H](N)[C@@H](O)c1cc(F)c(F)cc1F [4(S)-hydroxyevogliptin]
// result 928

====

# procedure details: Enzyme kinetics of evogliptin hydroxylation in pooled human liver microsomes
# Assay type: in vitro ADME
# experimental parameters: human, pH 7.4, Km, formation of 4(S)-hydroxyevogliptin (M2), single-enzyme kinetics
assay metric: Km at 20 min (µM)
Form entry: value (µM) — number only.

// query // fetch Km at 20 min given entry CC(C)(C)OC[C@@H]1C(=O)NCCN1C(=O)C[C@H](N)Cc1cc(F)c(F)cc1F [evogliptin]
// result 93.4

Data provenance: paper PMC6332232
